Target: T1, ZFP SBS#1271 (synthetic)
T1 chain: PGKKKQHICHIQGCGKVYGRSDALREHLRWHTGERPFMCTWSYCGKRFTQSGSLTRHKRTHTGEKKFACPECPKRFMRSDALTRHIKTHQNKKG
Experiment: EMSA
Details: tags: MBP fusion
readoutKind: pKd
Scale: pKd equals -log10([C]), with [C] in mol/L.

Query: Return reported pKd; argument: GTGGCACTG (dsDNA) DNA 1: GTGGCACTG DNA 2: CAGTGCCAC
Result: 9.04
